Data provenance is PubChem BioAssay AID2060612.

tested on: 565232-114-T-J1-PDC complex spheroid viability; assay: Anticancer human tumor 565232-114-T-J1-PDC patient-derived bladder carcinoma cell line growth inhibition [CLK]; details: second compound 0.316 µM; first compound 0.316 µM; stronger effect = lower value
measurementName: viability, T/C

{"compound": "COC1C=CCC(C)C(C)S(=O)(=O)NC(=O)c2ccc3c(c2)N(CC2CCC21)CC1(CCCc2cc(Cl)ccc21)CO3 (stereo not drawn) + CNC(=O)c1ccc(Nc2nc(OC3CCCC3)c3c(-c4ccc5nc(C)oc5c4)c[nH]c3n2)c(OC)c1", "viability, T/C": "16.4%"}
{"compound": "Nc1ccn(C2OC(CO)C(O)C2(F)F)c(=O)n1 (stereo not drawn) + CN1CCN(c2cc(C(=O)Nc3cc4cc(-c5cnn(C)c5)ccc4cn3)ccn2)CC1", "viability, T/C": "20.4%"}

Kindly consider the entry below.
In: Any idea what its viability, T/C is? The compound is O=c1[nH]cc(F)c(=O)[nH]1 + CNC(=O)c1ccc(Nc2nc(OC3CCCC3)c3c(-c4ccc5nc(C)oc5c4)c[nH]c3n2)c(OC)c1
Out: 31.2%

* * *

Listed compounds paired with reported viability, T/C
test system: 565232-114-T-J1-PDC complex spheroid viability; test: Anticancer human tumor 565232-114-T-J1-PDC cell line growth inhibition [CLK]; conditions: compound 0.1 µM; stronger effect = lower value;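 further: spheroids exposed to compounds for 7 days before readout; 100% = DMSO vehicle wells with luminescence normalized to vehicle control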

Worked cases, viability, T/C given:
{"compound": "C=CC(=O)N1CCN(c2nc(=O)n(-c3c(C)ccnc3C(C)C)c3nc(-c4c(O)cccc4F)c(F)cc23)C(C)C1 (stereo not drawn)", "viability, T/C": "82.7%"}
{"compound": "COC1C=CCC(C)C(C)S(=O)(=O)NC(=O)c2ccc3c(c2)N(CC2CCC21)CC1(CCCc2cc(Cl)ccc21)CO3 (stereo not drawn)", "viability, T/C": "92.9%"}
{"compound": "CCCS(=O)(=O)Nc1ccc(F)c(C(=O)c2c[nH]c3ncc(-c4ccc(Cl)cc4)cc23)c1F", "viability, T/C": "88.2%"}
{"compound": "C=C(F)C(=O)N1CCN(c2nc(OCC3CCCN3C)nc3c2CCN(c2cccc4cccc(Cl)c24)C3)CC1CC#N (stereo not drawn)", "viability, T/C": "103%"}
{"compound": "COc1c(OCCCN2CCOCC2)ccc2c3n(c(=NC(=O)c4cnc(N)nc4)nc12)CCN3", "viability, T/C": "103%"}
{"compound": "CNC(=O)c1ccc(Nc2nc(OC3CCCC3)c3c(-c4ccc5nc(C)oc5c4)c[nH]c3n2)c(OC)c1", "viability, T/C": "54.9% [middle of 12 runs]"}
{"compound": "CC(Nc1ccc2c(c1)OCCn1cc(N3C(=O)OCC3C(F)F)nc1-2)C(N)=O (stereo not drawn)", "viability, T/C": "83.6%"}

Please look at the following compound next.
In: Recorded viability, T/C of CN1CCN(c2cc(C(=O)Nc3cc4cc(-c5cnn(C)c5)ccc4cn3)ccn2)CC1 , please.
Out: 106% [middle of 9 runs]

* * *

Property: viability, T/C; scope: individual compounds
test system: 565232-114-T-J1-PDC complex spheroid viability; experiment: Anticancer human tumor 565232-114-T-J1-PDC cell line growth inhibition [CLK]; settings: second compound 0.0316 µM; first compound 0.1 µM; stronger effect = lower value;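 further: spheroids exposed to compounds for 7 days before readout; 100% = DMSO vehicle wells with luminescence normalized to vehicle control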

These solved cases illustrate the format of a correct answer.
{"compound": "Nc1ccccc1NC(=O)c1ccc(CNC(=O)OCc2cccnc2)cc1 + CNC(=O)c1ccc(Nc2nc(OC3CCCC3)c3c(-c4ccc5nc(C)oc5c4)c[nH]c3n2)c(OC)c1", "measurementName": "viability, T/C", "measValue": "109%"}
{"compound": "C#Cc1c(F)ccc2cc(O)cc(-c3ncc4c(N5CC6CCC(C5)N6)nc(OCC56CCCN5CC(F)C6)nc4c3F)c12 (stereo not given) + CN1CCN(c2cc(C(=O)Nc3cc4cc(-c5cnn(C)c5)ccc4cn3)ccn2)CC1", "measurementName": "viability, T/C", "measValue": "75.3%"}
{"compound": "COc1cccc2c1C(=O)c1c(O)c3c(c(O)c1C2=O)CC(O)(C(=O)CO)CC3OC1CC(N)C(O)C(C)O1 (stereo not given) + CN1CCN(c2cc(C(=O)Nc3cc4cc(-c5cnn(C)c5)ccc4cn3)ccn2)CC1", "measurementName": "viability, T/C", "measValue": "109%"}

In: Reported viability, T/C, compound O=C(c1cc(Cc2n[nH]c(=O)c3ccccc23)ccc1F)N1CCN(C(=O)C2CC2)CC1 + CNC(=O)c1ccc(Nc2nc(OC3CCCC3)c3c(-c4ccc5nc(C)oc5c4)c[nH]c3n2)c(OC)c1 : ____
Out: 85.9%

In: Entry under review: Nc1ccn(C2OC(CO)C(O)C2(F)F)c(=O)n1 (stereo not given) + CNC(=O)c1ccc(Nc2nc(OC3CCCC3)c3c(-c4ccc5nc(C)oc5c4)c[nH]c3n2)c(OC)c1 . Reported viability, T/C?
Out: 18.6%

In: So what's the measured viability, T/C for this one? CCc1c2c(nc3ccc(O)cc13)-c1cc3c(c(=O)n1C2)COC(=O)[C@]3(O)CC + CN1CCN(c2cc(C(=O)Nc3cc4cc(-c5cnn(C)c5)ccc4cn3)ccn2)CC1
Out: 38.5%

In: Which viability, T/C is listed for Cn1ncnc1[C@H]1c2n[nH]c(=O)c3cc(F)cc(c23)N[C@@H]1c1ccc(F)cc1 + CN1CCN(c2cc(C(=O)Nc3cc4cc(-c5cnn(C)c5)ccc4cn3)ccn2)CC1 ?
Out: 102%

In: Any idea what viability, T/C was measured for CC1(C)CCC(CN2CCN(c3ccc(C(=O)NS(=O)(=O)c4ccc(NCC5CCOCC5)c([N+](=O)[O-])c4)c(Oc4cnc5[nH]ccc5c4)c3)CC2)=C(c2ccc(Cl)cc2)C1 + CNC(=O)c1ccc(Nc2nc(OC3CCCC3)c3c(-c4ccc5nc(C)oc5c4)c[nH]c3n2)c(OC)c1 ?
Out: 93.9%

* * *

test system: 565232-114-T-J1-PDC complex spheroid viability; test: Anticancer human tumor 565232-114-T-J1-PDC cell line growth inhibition [CLK]; settings: second compound 10 µM; first compound 0.01 µM; stronger effect = lower value;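 further: spheroids exposed to compounds for 7 days before readout; 100% = DMSO vehicle wells with luminescence normalized to vehicle control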
Listing: viability, T/C of selected compounds
The answer is to be given in %; state only the numeric part.

The examples below pair each entry with its known result.
{"compound": "Cn1ncnc1[C@H]1c2n[nH]c(=O)c3cc(F)cc(c23)N[C@@H]1c1ccc(F)cc1 + CN1CCN(c2cc(C(=O)Nc3cc4cc(-c5cnn(C)c5)ccc4cn3)ccn2)CC1", "viability, T/C, %": 1.69}
{"compound": "CCN1CCN(Cc2ccc(Nc3ncc(F)c(-c4cc(F)c5nc(C)n(C(C)C)c5c4)n3)nc2)CC1 + CNC(=O)c1ccc(Nc2nc(OC3CCCC3)c3c(-c4ccc5nc(C)oc5c4)c[nH]c3n2)c(OC)c1", "viability, T/C, %": 18.4}
{"compound": "COc1c(OCCCN2CCOCC2)ccc2c3n(c(=NC(=O)c4cnc(N)nc4)nc12)CCN3 + CNC(=O)c1ccc(Nc2nc(OC3CCCC3)c3c(-c4ccc5nc(C)oc5c4)c[nH]c3n2)c(OC)c1", "viability, T/C, %": 10.3}
{"compound": "CCc1c2c(nc3ccc(O)cc13)-c1cc3c(c(=O)n1C2)COC(=O)[C@]3(O)CC + CNC(=O)c1ccc(Nc2nc(OC3CCCC3)c3c(-c4ccc5nc(C)oc5c4)c[nH]c3n2)c(OC)c1", "viability, T/C, %": 12.9}
{"compound": "CCN1CCN(Cc2ccc(Nc3ncc(F)c(-c4cc(F)c5nc(C)n(C(C)C)c5c4)n3)nc2)CC1 + CN1CCN(c2cc(C(=O)Nc3cc4cc(-c5cnn(C)c5)ccc4cn3)ccn2)CC1", "viability, T/C, %": 0.2}

In: Need viability, T/C, item Cn1ncnc1[C@H]1c2n[nH]c(=O)c3cc(F)cc(c23)N[C@@H]1c1ccc(F)cc1 + CNC(=O)c1ccc(Nc2nc(OC3CCCC3)c3c(-c4ccc5nc(C)oc5c4)c[nH]c3n2)c(OC)c1
Out: 19.5

In: What does the data say about its viability, T/C? Entry: CCc1c2c(nc3ccc(O)cc13)-c1cc3c(c(=O)n1C2)COC(=O)[C@]3(O)CC + CN1CCN(c2cc(C(=O)Nc3cc4cc(-c5cnn(C)c5)ccc4cn3)ccn2)CC1
Out: 1.67

* * *

tested on: 565232-114-T-J1-PDC complex spheroid viability; test: Anticancer human tumor 565232-114-T-J1-PDC cell line growth inhibition [CLK]; settings: second compound 3.16 µM; first compound 0.316 µM; active = viability on the fitted dose curve at most 10% of control; inactive = the rest;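 further: spheroids exposed to compounds for 7 days before readout; 100% = DMSO vehicle wells with luminescence normalized to vehicle control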
The reply should name one outcome from active, inactive

Solved cases below.
{"compound": "CC1(C)CCC(CN2CCN(c3ccc(C(=O)NS(=O)(=O)c4ccc(NCC5CCOCC5)c([N+](=O)[O-])c4)c(Oc4cnc5[nH]ccc5c4)c3)CC2)=C(c2ccc(Cl)cc2)C1 + CN1CCN(c2cc(C(=O)Nc3cc4cc(-c5cnn(C)c5)ccc4cn3)ccn2)CC1", "group": "active"}
{"compound": "CC(CO)NC(=O)c1cc(-c2ccc(Cl)cc2)nn(-c2cnn(C)c2)c1=O (stereo not given) + CNC(=O)c1ccc(Nc2nc(OC3CCCC3)c3c(-c4ccc5nc(C)oc5c4)c[nH]c3n2)c(OC)c1", "group": "inactive"}
{"compound": "O=c1[nH]cc(F)c(=O)[nH]1 + CNC(=O)c1ccc(Nc2nc(OC3CCCC3)c3c(-c4ccc5nc(C)oc5c4)c[nH]c3n2)c(OC)c1", "group": "inactive"}

In: What did the test return for CCN1CCN(Cc2ccc(Nc3ncc(F)c(-c4cc(F)c5nc(C)n(C(C)C)c5c4)n3)nc2)CC1 + CNC(=O)c1ccc(Nc2nc(OC3CCCC3)c3c(-c4ccc5nc(C)oc5c4)c[nH]c3n2)c(OC)c1 ?
Out: inactive

In: What outcome does the record of this test show for COc1cccc2c1C(=O)c1c(O)c3c(c(O)c1C2=O)CC(O)(C(=O)CO)CC3OC1CC(N)C(O)C(C)O1 (stereo not given) + CN1CCN(c2cc(C(=O)Nc3cc4cc(-c5cnn(C)c5)ccc4cn3)ccn2)CC1 ?
Out: active
